# Lookup of reported Growth Rate keyed by entry
# Tested on: HEK-293T
# Measurement Protocol: Incucyte cell viability with HEK293T; also: unitless GR value; below 1 slowed growth and below 0 cell loss
# Type: toxicity, cell-based
# Condition Parameters: human, 24 h, 10 µM, compound concentration 10 uM, replicate number 2
Peptide text beside a SMILES is read from it.
Answer field: number only, no words.

For orientation, consider the following solved cases.
CNC(=O)c1cnc(N2CCC[C@H](N)C2)nc1Nc1cc(C(C)C)nc(C(C)C)c1 :: -0.02
COc1cccc(-c2nccc3c2CN(c2ccccc2)C3=O)c1 :: 0.7
Cc1nn(CC(F)(F)F)cc1Nc1ncc(Br)c(NCc2ccc(S(N)(=O)=O)cc2)n1 :: 1
CC(C)(O)c1ccc(N2Cc3c(ccnc3-c3ccc(F)cc3OCC(F)(F)F)C2=O)cc1 :: 1
CC(C)n1nc(-c2cc3cc(O)ccc3[nH]2)c2c(N)ncnc21 :: -0.09
CCc1ccccc1NC(=O)CSC(=O)NNC(=O)[C@H](Cc1c[nH]c2ccccc12)NC(=O)OC(C)(C)C :: 0.54
O=C1Cc2cc(C(=O)N[C@@H]3C[C@H]4CC[C@@H](C3)N4S(=O)(=O)CC3CCN(CCCC(F)(F)F)CC3)c(Cl)cc2N1 :: 1
O=C(c1ccc2[nH]ccc2c1)N1CCN(S(=O)(=O)c2ccc3[nH]c(=O)oc3c2)CC1 :: 1

For the next question, use this compound.
Recorded result, CSCC[C@H](NC(=O)[C@H](CC(=O)O)NC(C)=O)C(=O)N[C@@H](CCC(N)=O)C(=O)N[C@H](C=O)CC(=O)O.O=C(O)C(F)(F)F (Ac-DMQD-aldehyde) , Growth Rate: 0.97

----------
# Test system: Fibroblast
# Measurement Protocol: Incucyte cell viability with human fibroblast; also: unitless GR value; below 1 slowed growth and below 0 cell loss
# Format: toxicity, cell-based
# Condition Parameters: 24 h, 10 µM, compound concentration 10 uM, replicate number 2
Square brackets hold non-standard residues; d marks the D form. Peptide text beside a SMILES is read from it. * marks the point of attachment. Benzoyl(4-tBu) = CC(C)(C)c1ccc(C(=O)*)cc1; Lys(Et2) = CCN(CC)CCCC[C@H](N)C(=O)O
# Lookup of reported Growth Rate keyed by entry
Answer field: number only, no words.

Recorded result, `CCNC(=O)NCCSC[C@H]1O[C@@H](n2cnc3c(N)ncnc32)[C@H](O)[C@@H]1O` , Growth Rate: 0

Recorded result, `CNc1ncc2cc(-c3cc(NC(=O)NCCC(C)(C)C)c(F)cc3C)c(C)nc2n1` , Growth Rate: -0.55

Recorded result, `CN(C)CCCN(CC[C@H](N)C(=O)O)C[C@H]1O[C@@H](n2cnc3c(N)ncnc32)[C@H](O)[C@@H]1O.O=C(O)C(F)(F)F` , Growth Rate: 0.03

Recorded result, CCN(CC)CCCC[C@H](NC(=O)[C@H](CC(C)C)NC(=O)[C@H](C)NC(=O)[C@H](Cc1ccccc1)NC(=O)c1ccc(C(C)(C)C)cc1)C(=O)N[C@@H](CO)C(=O)OC ({Benzoyl(4-tBu)}-FAL[Lys(Et2)]S-OMe) , Growth Rate: 0.71

----------
# Tested on: U2OS
# Measurement Protocol: Incucyte cell viability with U2OS; also: unitless GR value; below 1 slowed growth and below 0 cell loss
# Assay type: toxicity, cell-based
# Condition Parameters: human, 24 h, 10 µM, compound concentration 10 uM, replicate number 1
Square brackets hold non-standard residues; d marks the D form. Peptide text beside a SMILES is read from it. * marks the point of attachment. Benzoyl(4-tBu) = CC(C)(C)c1ccc(C(=O)*)cc1; Lys(Et2) = CCN(CC)CCCC[C@H](N)C(=O)O
Measure Name: Growth Rate
Answer field: number only, no words.

CCn1c(=O)c(C)cn(Cc2nnc(-c3ccc(F)c(OC)c3F)s2)c1=O :: 0.26

Recorded result, COc1ccc2c(c1)OC(C)(C)C(c1ccccc1)C2c1ccc(OCCN2CCCC2)cc1 (centres undefined) [ORMELOXIFENE] , Growth Rate: 1

Recorded result, `COc1nc(Nc2cc(S(C)(=O)=O)ccc2N[C@@H](c2cccc3c2OC(F)(F)O3)c2ncccc2Cl)nc(N2CCNCC2)n1` , Growth Rate: -0.91

Recorded result, `COc1cc2c(NC3CCN(C4CCCCC4)CC3)nc(N3CCCN(C(C)C)CC3)nc2cc1OCCCN1CCCCC1` , Growth Rate: -0.09

Recorded result, `Cn1cc(NC(=O)c2cc(F)cc(F)c2)c(C(=O)NC2CCNCC2)n1` , Growth Rate: 0.63

Recorded result, `C[C@H](NC(=O)[C@H](Cc1ccccc1)NC(=O)OCc1ccccc1)C(=O)CF` , Growth Rate: 0.43

Recorded result, `O=C(CCl)Nc1ccc(S(=O)(=O)c2ccc(NC(=O)CCl)cc2)cc1` , Growth Rate: -0.42

Recorded result, `Cc1ccc(N2C(=O)/C(=C/C=C/c3ccco3)C(=O)NC2=S)cc1Cl` , Growth Rate: 1

Recorded result, CC(=O)N[C@@H](CC(C)C)C(=O)N[C@@H](CCC(=O)O)C(=O)N[C@@H](Cc1cnc[nH]1)C(=O)N[C@H](C=O)CC(=O)O.O=C(O)C(F)(F)F (Ac-LEHD-aldehyde) , Growth Rate: 1

Recorded result, `CCOCC1(COCC)CCC(c2n[nH]cc2CN(C)CCNC)CC1.Cl` , Growth Rate: 0.95

Recorded result, C[C@]12CC[C@@H]3c4ccc(O)cc4C[C@@H](CCCCCCCCC[S+]([O-])CCCC(F)(F)C(F)(F)F)[C@H]3[C@@H]1CC[C@@H]2O (some centres undefined) [FULVESTRANT] , Growth Rate: 0.86

Recorded result, CCN(CC)CCCC[C@H](NC(=O)[C@H](CC(C)C)NC(=O)[C@H](C)NC(=O)[C@H](Cc1ccccc1)NC(=O)c1ccc(C(C)(C)C)cc1)C(=O)N[C@@H](CO)C(=O)OC ({Benzoyl(4-tBu)}-FAL[Lys(Et2)]S-OMe) , Growth Rate: 1

Recorded result, `N=C(N)N/N=C/c1cccc(Cl)c1Cl` , Growth Rate: 0.24

Recorded result, `COc1cc2c(NC3CCN(CC4CCCCC4)CC3)nc(N3CCCN(C(C)C)CC3)nc2cc1OCCCN1CCCCC1` , Growth Rate: -0.52

Recorded result, `CN1CCN(c2nc(-c3ccc(C(=O)NC4(C(=O)NCC#N)CCCCC4)cc3)cs2)CC1` , Growth Rate: 1

Recorded result, COC(=O)[C@@H]1CC2=CC(=O)CC[C@]2(C)[C@@]23O[C@@H]2C[C@@]2(C)[C@@H](CC[C@@]24CCC(=O)O4)[C@H]13 [EPLERENONE] , Growth Rate: 1

Recorded result, `COc1cccc(-c2nccc3c2CN(c2ccccc2)C3=O)c1` , Growth Rate: 1

----------
# Lookup of reported Growth Rate keyed by entry
# Test system: Fibroblast
# Measurement Protocol: Incucyte cell viability with human fibroblast; also: unitless GR value; below 1 slowed growth and below 0 cell loss
# Assay type: toxicity, cell-based
# Condition Parameters: 24 h, 10 µM, compound concentration 10 uM, replicate number 1
Answer field: number only, no words.

For orientation, consider the following solved cases.
O=C(NO)C(c1ccc(-c2ncc(C(F)(F)F)cn2)cc1)c1ccccc1F (stereo not given) :: 0.37
CNC(=O)N1CCc2c(c(N3CCCc4cc(-c5cnn(C)c5)c(C(F)F)cc43)nn2C2CCOCC2)C1 :: 1
O=C(O)/C(S)=C/c1c[nH]c2ccc(F)cc12 :: 0.7
C[C@]12O[C@H](C[C@]1(O)CO)n1c3ccccc3c3c4c(c5c6ccccc6n2c5c31)CNC4=O :: 1

For the next question, use this compound.
Recorded result, `COc1cc(O)c2c(c1)/C=C\C[C@H](O)[C@H](O)C(=O)/C=C\C[C@H](C)OC2=O` , Growth Rate: -0.67

----------
# Lookup of reported Growth Rate keyed by entry
# System: HEK-293T
# Measurement Protocol: Incucyte cell viability with HEK293T; also: unitless GR value; below 1 slowed growth and below 0 cell loss
# Assay type: toxicity, cell-based
# Condition Parameters: human, 24 h, 10 µM, compound concentration 10 uM, replicate number 1
Answer field: number only, no words.

For orientation, consider the following solved cases.
CNCCN(C)Cc1cn[nH]c1-c1ccc(OC2CC(OCCC3CCOCC3)C2)cc1 (centres undefined) :: 0.64
CCN(CCN(C)C)C(=O)CNCc1cc(C(N)=O)ccn1.Cl.O :: 0.74
CCN1C(C)(C)CC(Oc2ccc(C(=O)Nc3ccc(NC(=O)Nc4cc(C(C)(C)C)on4)cc3)nc2)CC1(C)C :: -0.29

Recorded result, `CC(=O)Nc1ccc(-c2cc(-c3ccccc3)nc3cc(C(=O)NCCCn4ccnc4)nn23)cc1` , Growth Rate: 0.47

Recorded result, `Cl.Cl.O=C(O)Cn1nnc(-c2ccc(CN(CCCCOc3ccc(CN4CCCC4)cc3)CCc3ccccc3)cc2)n1` , Growth Rate: 0.53

Recorded result, `Cc1ccc(F)c2cc(C(=O)N[C@@H]3CCC[C@H](N4CC[C@H](N(C)S(C)(=O)=O)C4)C3)[nH]c12` , Growth Rate: 0.35

Recorded result, `CC(C)C(=O)SCCCCCCC(=O)Nc1nc(-c2ccccc2)cs1` , Growth Rate: 0.55

Recorded result, `O=C(Nc1c[nH]nc1C(=O)NC1CCNCC1)c1cc(F)cc(F)c1` , Growth Rate: 0.15

Recorded result, `CCc1ccccc1NC(=O)CSC(=O)NNC(=O)[C@H](Cc1c[nH]c2ccccc12)NC(=O)OC(C)(C)C` , Growth Rate: 0.24

Recorded values, source ChEMBL document CHEMBL5724709.
